B1: H2-Kb / Ed28 (parent complex)
chain 1: AQSVTQPDARVTVSEGASLQLRCKYSYFGTPYLFWYVQYPRQGLQLLLKYYPGDPVVQGVNGFEAEFSKSNSSFHLRKASVHWSDWAVYFCAVSPGSGGKLTLGAGTRLQVNL
chain 2: DSGVVQSPRHIIKEKGGRSVLTCIPISGHSNVVWYQQTLGKELKFLIQHYEKVERDKGFLPSRFSVQQFDDYHSEMNMSALELEDSAMYFCASSPRASDYTFGSGTRLLVI
chain 3: not shown
chain 4: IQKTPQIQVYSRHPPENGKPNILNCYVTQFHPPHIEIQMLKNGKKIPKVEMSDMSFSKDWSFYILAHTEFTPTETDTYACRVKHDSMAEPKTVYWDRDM
chain 5: SIINFEKL

Variants of: B1
PROTOCOL TEXT: % of reporter cells activated (NFAT-GFP), raw; also: test concentration or dose not given here
Cut-off 0.3 on ratio to parent: below means label 1, at or above means label 0.

Look over these answered cases.
chain 5 N4G | label 1
chain 5 I3M | label 0
chain 5 E6S | label 1
chain 5 N4D | label 1
chain 5 K7A | label 1
chain 5 L8N | label 0
chain 5 S1K | label 0
chain 5 S1I | label 0
chain 5 L8W | label 0
chain 5 E6N | label 1

Next up:
In: # strict comparison: is reported ratio to parent < 0.3? input = chain 5 N4P
Out: label 1
